B1: TRIM9 (parent)
chain: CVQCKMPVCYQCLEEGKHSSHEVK

- Variants of: B1
- assayNotes: protein stability index of a GFP-peptide fusion (GPS, HEK-293T) (PSI 1-6); higher = more stable;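 note: lentivirally expressed fusions sorted by FACS into six bins by GFP to DsRed ratio, PSI derived from sequencing read proportions per bin multiplied by bin number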
- settings: c terminus: a fixed tail appended

>  <recordSequence>
CVACKMPVCYQCLEEGKHSSHEVK [Q3A]

>  <protein stability index>
2.96

$$$$
>  <recordSequence>
CVQCKMPVCYQCLEEMKHSSHEVK [G16M]

>  <protein stability index>
3.71

$$$$
>  <recordSequence>
CVQCKMPVCYQCLEEGEHSSHEVK [K17E]

>  <protein stability index>
3.89

$$$$
>  <recordSequence>
CVQCKMPVCYQCLEEGKHSSFEVK [H21F]

>  <protein stability index>
2.88

$$$$
>  <recordSequence>
CVQCKMPCCYQCLEEGKHSSHEVK [V8C]

>  <protein stability index>
3.95

$$$$
>  <recordSequence>
CVQCKMKVCYQCLEEGKHSSHEVK [P7K]

>  <protein stability index>
3.84

$$$$
>  <recordSequence>
CVQCKMDVCYQCLEEGKHSSHEVK [P7D]

>  <protein stability index>
3.11

$$$$
>  <recordSequence>
CVQCKMPICYQCLEEGKHSSHEVK [V8I]

>  <protein stability index>
3.66

$$$$
>  <recordSequence>
CVQCKMPVCYQTLEEGKHSSHEVK [C12T]

>  <protein stability index>
3.42

$$$$
>  <recordSequence>
CVQCKSPVCYQCLEEGKHSSHEVK [M6S]

>  <protein stability index>
4.97

$$$$
>  <recordSequence>
CVQCKMPVCHQCLEEGKHSSHEVK [Y10H]

>  <protein stability index>
4

$$$$
>  <recordSequence>
CVQCKMPVCYTCLEEGKHSSHEVK [Q11T]

>  <protein stability index>
4.12

$$$$
>  <recordSequence>
CVQCKMPVYYQCLEEGKHSSHEVK [C9Y]

>  <protein stability index>
2.8

$$$$
>  <recordSequence>
CVQCKMPVCYQCLEKGKHSSHEVK [E15K]

>  <protein stability index>
3.67

$$$$
>  <recordSequence>
KVQCKMPVCYQCLEEGKHSSHEVK [C1K]

>  <protein stability index>
3.65

$$$$
>  <recordSequence>
CVQCKMPVCYQGLEEGKHSSHEVK [C12G]

>  <protein stability index>
3.81

$$$$
>  <recordSequence>
CVQCKMPVCYFCLEEGKHSSHEVK [Q11F]

>  <protein stability index>
3.65

$$$$
>  <recordSequence>
CVQCKMPVVYQCLEEGKHSSHEVK [C9V]

>  <protein stability index>
4.07

$$$$
>  <recordSequence>
CVQCKMPVCYQCLTEGKHSSHEVK [E14T]

>  <protein stability index>
3.53

$$$$
>  <recordSequence>
CVQCKMPVCYQCLEEVKHSSHEVK [G16V]

>  <protein stability index>
3.62

$$$$
>  <recordSequence>
CVQCKMPVCYQFLEEGKHSSHEVK [C12F]

>  <protein stability index>
3.19

$$$$
>  <recordSequence>
CVQCKMPVCYQCLEEGKHSSHVVK [E22V]

>  <protein stability index>
4.17

$$$$
>  <recordSequence>
CVQCKEPVCYQCLEEGKHSSHEVK [M6E]

>  <protein stability index>
4.37

$$$$
>  <recordSequence>
CVECKMPVCYQCLEEGKHSSHEVK [Q3E]

>  <protein stability index>
3.82

$$$$
>  <recordSequence>
IVQCKMPVCYQCLEEGKHSSHEVK [C1I]

>  <protein stability index>
3.08

$$$$
>  <recordSequence>
CVQCKMPVCYQCLEEGGHSSHEVK [K17G]

>  <protein stability index>
4.38

$$$$
>  <recordSequence>
CVQCKMPVCYECLEEGKHSSHEVK [Q11E]

>  <protein stability index>
3.57

$$$$
>  <recordSequence>
CVQCKMAVCYQCLEEGKHSSHEVK [P7A]

>  <protein stability index>
4.02

$$$$
>  <recordSequence>
CVQCKLPVCYQCLEEGKHSSHEVK [M6L]

>  <protein stability index>
3.99

$$$$
>  <recordSequence>
CVQCIMPVCYQCLEEGKHSSHEVK [K5I]

>  <protein stability index>
2.05

$$$$
>  <recordSequence>
CVQCKMPVCYQCLEEGKHSSHEVW [K24W]

>  <protein stability index>
2.88

$$$$
>  <recordSequence>
CVQCKMPVCYQCLEEGKHSSHEVH [K24H]

>  <protein stability index>
3.92

$$$$
>  <recordSequence>
CVQCKMPVCYQCLEETKHSSHEVK [G16T]

>  <protein stability index>
3.83

$$$$
>  <recordSequence>
CVQCKMPVCYNCLEEGKHSSHEVK [Q11N]

>  <protein stability index>
4.27

$$$$
>  <recordSequence>
CVQCKMPVCYQCLEEGKHSSHEVI [K24I]

>  <protein stability index>
2.95

$$$$
>  <recordSequence>
CVQCKMPVCYQCCEEGKHSSHEVK [L13C]

>  <protein stability index>
4.88

$$$$
>  <recordSequence>
CVQCKMPVCYQCLEEGKHSCHEVK [S20C]

>  <protein stability index>
4.32

$$$$
>  <recordSequence>
GVQCKMPVCYQCLEEGKHSSHEVK [C1G]

>  <protein stability index>
2.88

$$$$
>  <recordSequence>
CVQCKMPVCYQCLEEGKHGSHEVK [S19G]

>  <protein stability index>
3.67

$$$$
>  <recordSequence>
CVQCKMPVCYQCLEEGKYSSHEVK [H18Y]

>  <protein stability index>
3.55

$$$$
>  <recordSequence>
CVQCKMPLCYQCLEEGKHSSHEVK [V8L]

>  <protein stability index>
3.65

$$$$
>  <recordSequence>
CVQAKMPVCYQCLEEGKHSSHEVK [C4A]

>  <protein stability index>
3.2

$$$$
>  <recordSequence>
CVQCKMPVCYQCGEEGKHSSHEVK [L13G]

>  <protein stability index>
4.81

$$$$
>  <recordSequence>
CVQCKMPVCYQCLEEGKHSSHEIK [V23I]

>  <protein stability index>
3.7

$$$$
>  <recordSequence>
CVQCKMWVCYQCLEEGKHSSHEVK [P7W]

>  <protein stability index>
3.18

$$$$
>  <recordSequence>
CVQCKNPVCYQCLEEGKHSSHEVK [M6N]

>  <protein stability index>
4.22

$$$$
>  <recordSequence>
CVQCKMPVCYQNLEEGKHSSHEVK [C12N]

>  <protein stability index>
3.67

$$$$
>  <recordSequence>
CVDCKMPVCYQCLEEGKHSSHEVK [Q3D]

>  <protein stability index>
3.91

$$$$
>  <recordSequence>
CVQCQMPVCYQCLEEGKHSSHEVK [K5Q]

>  <protein stability index>
2.83

$$$$
>  <recordSequence>
CFQCKMPVCYQCLEEGKHSSHEVK [V2F]

>  <protein stability index>
3.51

$$$$
>  <recordSequence>
CVQCKMEVCYQCLEEGKHSSHEVK [P7E]

>  <protein stability index>
4.35

$$$$
>  <recordSequence>
CVQCKMPVCYQCLEEGKASSHEVK [H18A]

>  <protein stability index>
4.04

$$$$
>  <recordSequence>
CVQCNMPVCYQCLEEGKHSSHEVK [K5N]

>  <protein stability index>
4.04

$$$$
>  <recordSequence>
CVQRKMPVCYQCLEEGKHSSHEVK [C4R]

>  <protein stability index>
2.83

$$$$
>  <recordSequence>
CVQCKMPKCYQCLEEGKHSSHEVK [V8K]

>  <protein stability index>
5.1

$$$$
>  <recordSequence>
CVQCKMPGCYQCLEEGKHSSHEVK [V8G]

>  <protein stability index>
4.82

$$$$
>  <recordSequence>
CVQCKMPFCYQCLEEGKHSSHEVK [V8F]

>  <protein stability index>
4.03

$$$$
>  <recordSequence>
CVQCKMPVCYQCLGEGKHSSHEVK [E14G]

>  <protein stability index>
4.14

$$$$
>  <recordSequence>
CVQCKMPVCYQCQEEGKHSSHEVK [L13Q]

>  <protein stability index>
4.48

$$$$
>  <recordSequence>
CVQCKMPVCYQCLEEGLHSSHEVK [K17L]

>  <protein stability index>
3.86

$$$$
>  <recordSequence>
CVQCKGPVCYQCLEEGKHSSHEVK [M6G]

>  <protein stability index>
4.93

$$$$
>  <recordSequence>
CVQCKMPSCYQCLEEGKHSSHEVK [V8S]

>  <protein stability index>
4.53

$$$$
>  <recordSequence>
CVQCKMPVCYQCLEEGKHSSHLVK [E22L]

>  <protein stability index>
3.74

$$$$
>  <recordSequence>
CVQCKMPVCYQCLEEGDHSSHEVK [K17D]

>  <protein stability index>
2.88

$$$$
>  <recordSequence>
CVQCKMPVCCQCLEEGKHSSHEVK [Y10C]

>  <protein stability index>
3.58

$$$$
>  <recordSequence>
CVQCKVPVCYQCLEEGKHSSHEVK [M6V]

>  <protein stability index>
4.13

$$$$
>  <recordSequence>
CVQCKMPVCYQCLEEGKHSAHEVK [S20A]

>  <protein stability index>
3.68

$$$$
>  <recordSequence>
CVQCKMPVCYQCLCEGKHSSHEVK [E14C]

>  <protein stability index>
4.34

$$$$
>  <recordSequence>
CVQCKMPVCYQCLEEGAHSSHEVK [K17A]

>  <protein stability index>
4.14

$$$$
>  <recordSequence>
CVQCKMPVCYQCLHEGKHSSHEVK [E14H]

>  <protein stability index>
3.34

$$$$
>  <recordSequence>
CVQCKMPVCYQCAEEGKHSSHEVK [L13A]

>  <protein stability index>
4.22

$$$$
>  <recordSequence>
CVQCKMPVCYQCTEEGKHSSHEVK [L13T]

>  <protein stability index>
3.08

$$$$
>  <recordSequence>
CVQCKMPVCYQCLEEGKHSSMEVK [H21M]

>  <protein stability index>
3.7

$$$$
>  <recordSequence>
CVQCKMPVCYQCLEEGKHSSHEAK [V23A]

>  <protein stability index>
4.37

$$$$
>  <recordSequence>
CVQIKMPVCYQCLEEGKHSSHEVK [C4I]

>  <protein stability index>
2.44

$$$$
>  <recordSequence>
CVQCKMPVCYQELEEGKHSSHEVK [C12E]

>  <protein stability index>
4.25

$$$$
>  <recordSequence>
CVQCKMPVCLQCLEEGKHSSHEVK [Y10L]

>  <protein stability index>
4.61

$$$$
>  <recordSequence>
CVQCKMPVCYQCLEEGKTSSHEVK [H18T]

>  <protein stability index>
4.11

$$$$
>  <recordSequence>
CVQCKMPVCYQCLEEGKHSIHEVK [S20I]

>  <protein stability index>
2.9

$$$$
>  <recordSequence>
CVQCKMPVCYQCREEGKHSSHEVK [L13R]

>  <protein stability index>
4.13

$$$$
>  <recordSequence>
CVQCKMPVCMQCLEEGKHSSHEVK [Y10M]

>  <protein stability index>
4.08

$$$$
>  <recordSequence>
LVQCKMPVCYQCLEEGKHSSHEVK [C1L]

>  <protein stability index>
3.27

$$$$
>  <recordSequence>
CVQCKMPVCYQCLEEGKHLSHEVK [S19L]

>  <protein stability index>
3.89

$$$$
>  <recordSequence>
CVQCKMPVCYQCLREGKHSSHEVK [E14R]

>  <protein stability index>
3.83

$$$$
>  <recordSequence>
CVQCKMPVCYQCLVEGKHSSHEVK [E14V]

>  <protein stability index>
3.34

$$$$
>  <recordSequence>
CVQCKMPVCYQCLEEGKHSSHEVF [K24F]

>  <protein stability index>
2.85

$$$$
>  <recordSequence>
CWQCKMPVCYQCLEEGKHSSHEVK [V2W]

>  <protein stability index>
3.16

$$$$
>  <recordSequence>
CVQCKMPVCTQCLEEGKHSSHEVK [Y10T]

>  <protein stability index>
3.52

$$$$
>  <recordSequence>
CVQCKAPVCYQCLEEGKHSSHEVK [M6A]

>  <protein stability index>
3.95

$$$$
>  <recordSequence>
CVQCKMPVCNQCLEEGKHSSHEVK [Y10N]

>  <protein stability index>
4.27

$$$$
>  <recordSequence>
CVQCKMPVCYQCLEEGKHSSHEDK [V23D]

>  <protein stability index>
4.44

$$$$

# credit: the supplement of paper PMC10567573
